# study.system: SUR2A (Rattus norvegicus, UniProt Q63563)
# Construct: gene Abcc9; residues S615-L933 (SUR2A^615–933; CXXHX16H motif and NBD1)
# Sequence (Q63563 615-933): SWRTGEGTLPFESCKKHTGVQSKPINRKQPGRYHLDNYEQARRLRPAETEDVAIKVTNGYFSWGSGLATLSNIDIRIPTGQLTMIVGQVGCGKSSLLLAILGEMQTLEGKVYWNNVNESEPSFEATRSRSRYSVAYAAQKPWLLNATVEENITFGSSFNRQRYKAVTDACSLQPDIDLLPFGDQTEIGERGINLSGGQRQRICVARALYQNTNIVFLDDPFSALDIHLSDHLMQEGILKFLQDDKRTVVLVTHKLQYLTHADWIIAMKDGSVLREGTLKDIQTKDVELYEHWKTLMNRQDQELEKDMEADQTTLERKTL
# test.method.notes: UV-vis absorption titration of purified protein; koff by heme transfer to apo-myoglobin
# Type: binding
measure.name: Kd

IN: For the compound C=CC1=C(C)C2=Cc3c(C=C)c(C)c4[n]3[Fe]([Cl])[n]3c(c(C)c(CCC(=O)O)c3=CC3=NC(=C4)C(C)=C3CCC(=O)O)=CC1=N2 , what Kd is on record?
OUT: 8 µM

---

# study.system: SUR2A (Rattus norvegicus, UniProt Q63563)
# Construct: gene Abcc9; residues S615-L933 (SUR2A^615–933; CXXHX16H motif and NBD1)
# test.method.notes: spectrophotometric titration; stopped-flow, resonance Raman, ultrafast spectroscopy
# Type: binding
measure.name: Kd (nM)
Respond with the bare value in nM.

IN: Param readout = Kd; param system = SUR2A (Rattus norvegicus, UniProt Q63563); param query = [C-]#[O+] [carbon monoxide] ; response: value
OUT: 600
